Cited source: paper PMC11013284

tested on: human diploid embryonic lung fibroblast hMRC-5SV2 cells; assay: in vitro
recorded.endpoint: CC50 (nM)
State just the number; it will be interpreted in nM.

>  <query.smiles>
O=C(/C=C/c1ccccc1)/C=C/c1ncccn1

>  <CC50 / nM>
1600

$$$$
>  <query.smiles>
O=C(/C=C/c1ccccc1)/C=C/c1ccccn1

>  <CC50 / nM>
1500

$$$$

Next up:
Write down the reported CC50 of O=C(/C=C/c1ccccc1)/C=C/c1ccncc1 , test system: human diploid embryonic lung fibroblast hMRC-5SV2 cells.
2000

---

tested on: Trypanosoma brucei brucei trypomastigotes, suramin-sensitive strain (Squib 427); test: T. b. brucei growth/viability assay (resazurin); type: cell-based; conditions: 3 days
recorded.endpoint: IC50 (µM)
Expressed in µM, but write only the number.

# annotated cases, reported IC50 shown
>  <compound>
Cc1ccc(C2CC(=O)CC(c3ccc(C)cc3)S2)cc1 (racemic)

>  <system>
Trypanosoma brucei brucei trypomastigotes, suramin-sensitive strain (Squib 427)

>  <measured.value>
0.8

$$$$
>  <compound>
COc1ccc(C2CC(=O)CC(c3ccc(OC)cc3)[S+]2[O-])cc1 (stereo not drawn) [3′d]

>  <system>
Trypanosoma brucei brucei trypomastigotes, suramin-sensitive strain (Squib 427)

>  <measured.value>
2.3

$$$$
>  <compound>
CN(C)c1ccc(/C=C/C(=O)/C=C/c2ccc(F)cn2)cc1

>  <system>
Trypanosoma brucei brucei trypomastigotes, suramin-sensitive strain (Squib 427)

>  <measured.value>
13.3

$$$$
>  <compound>
COc1ccc(C2CC(=O)CC(c3ccc(OC)c(OC)c3)S2)cc1OC (racemic)

>  <system>
Trypanosoma brucei brucei trypomastigotes, suramin-sensitive strain (Squib 427)

>  <measured.value>
8.1

$$$$

Form field: IC50 recorded for O=C1CC(c2ccccn2)S(=O)(=O)C(c2ccccn2)C1 (racemic) [4w] with Trypanosoma brucei brucei trypomastigotes, suramin-sensitive strain (Squib 427) (enter value)
0.5

Request: CN(C)c1ccc([C@H]2CC(=O)C[C@H](c3ccc(N(C)C)cc3)S2)cc1 (racemic)
1.5

Please answer likewise for CN(C)c1ccc(/C=C/C(=O)/C=C/c2ccc(C(F)(F)F)cc2)cc1
9.2
